- System: MALME-3M melanoma
- PROTOCOL_DETAILS: NCI-60 one-dose screen, 48 h (100 = growth as untreated, 0 = no growth, -100 = all killed)
- CONDITION_PARAMETERS: 10 µM unless noted
Compounds without any hit were thinned out: in the full panel of roughly 83,000, 20% have a hit.
Class key for growth values: range A (below 70%), range B (70% to below 90%), range C (90% or more)

COMPOUND: Cc1cc(=O)oc2cc(Oc3nc(-c4ccccc4)cn4c(-c5ccccc5)cnc34)ccc12
ASSIGNED_CLASS: range A
//
COMPOUND: CCCCCC(C)(O)C(C(=O)O)c1ccccc1 (stereo not drawn)
ASSIGNED_CLASS: range C
//
COMPOUND: COC(=O)[C@@H](Cc1c[nH]c2ccccc12)NC[C@@H](O)CN1C(=O)/C(=C\c2cc(OC)c(OC)c(OC)c2)c2ccccc21
ASSIGNED_CLASS: range B
//
COMPOUND: CCCCCCC/C=N/NC(=O)c1ccc(-n2cc(-c3ccccc3)nn2)cc1
ASSIGNED_CLASS: range B

Query block: The entry to classify is "CCCCCCCC/C=C\CCCCCCCCOc1ccc(CC(=O)NCC[N+]2(C)CCCC2)cc1" ; which class holds it?
Result block: range A

Query block: The entry to classify is "CC/C(=C(/c1ccc(Cl)cc1)c1ccc(OCCN2CCCCCC2)cc1)c1ccccc1" ; which class holds it?
Result block: range C

Query block: The entry to classify is "COc1ccc(N/N=C/c2ccc3c(c2)Sc2ccccc2N3C)cc1" ; which class holds it?
Result block: range C

Query block: The entry to classify is "C=CCn1c(SCC(=O)Nc2ccc(C(=O)/C=C/c3cc(OC)c(OC)c(OC)c3)cc2)nnc1-c1cc(-c2ccc(S(N)(=O)=O)cc2)nc2ccccc12" ; which class holds it?
Result block: range C

All values here come from PubChem BioAssay (NCI).
